Target protein (sequence): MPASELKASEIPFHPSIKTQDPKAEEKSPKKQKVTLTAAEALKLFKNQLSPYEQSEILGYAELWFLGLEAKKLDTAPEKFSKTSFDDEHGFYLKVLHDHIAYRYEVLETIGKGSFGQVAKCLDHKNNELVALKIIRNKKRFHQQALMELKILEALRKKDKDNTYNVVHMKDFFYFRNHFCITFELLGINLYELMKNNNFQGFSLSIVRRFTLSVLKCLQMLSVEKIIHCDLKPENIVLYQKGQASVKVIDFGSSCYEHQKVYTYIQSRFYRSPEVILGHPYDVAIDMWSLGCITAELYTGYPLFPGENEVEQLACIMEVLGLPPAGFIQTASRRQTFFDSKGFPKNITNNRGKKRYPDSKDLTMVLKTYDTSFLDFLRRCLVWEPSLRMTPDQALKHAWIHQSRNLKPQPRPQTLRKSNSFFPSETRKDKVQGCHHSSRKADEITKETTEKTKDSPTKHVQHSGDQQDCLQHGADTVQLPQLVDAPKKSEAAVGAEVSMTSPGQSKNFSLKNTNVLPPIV
Threshold-based label: IC50 under 600 nM gives MET, IC50 not under 600 nM gives NOT MET.

INSERT INTO results (molecule, classification) VALUES
  ('Cn1ccc2cc(/C=C3\N=C(NC4CCCCCC4)NC3=O)ccc21', 'NOT MET'),
  ('CCCCCCc1ccc(NC2=N/C(=C\c3ccc4ncsc4c3)C(=O)N2)cc1', 'NOT MET'),
  ('O=C1NC(NCc2ccccc2OC(F)(F)F)=N/C1=C\c1ccc2ncsc2c1', 'NOT MET'),
  ('Cn1cnc2cc(/C=C3\N=C(NC4CCCCCC4)NC3=O)ccc21', 'NOT MET'),
  ('O=C1NC(NC2CCCC(F)(F)C2)=N/C1=C\c1ccc2ncsc2c1 (racemic)', 'MET'),
  ('O=C1NC(NCc2ccccc2C(F)(F)F)=N/C1=C\c1ccc2ncsc2c1', 'NOT MET'),
  ('O=C1NC(N[C@@H]2CCC[C@H]2O)=N/C1=C\c1ccc2ncsc2c1 (racemic)', 'MET'),
  ('O=C1NC(N[C@@H](CO)CC2CCC2)=N/C1=C\c1ccc2ncsc2c1', 'NOT MET'),
  ('O=C1NC(N[C@@H](CO)CC2CCCCC2)=N/C1=C\c1ccc2ncsc2c1', 'NOT MET'),
  ('CN1CCN(c2ccc(NC3=N/C(=C\c4ccc5ncsc5c4)C(=O)N3)cc2)CC1', 'MET'),
  ('O=C1NC(NC23CC4CC(CC(C4)C2)C3)=N/C1=C\c1ccc2scnc2c1', 'NOT MET'),
  ('CN1CCN(c2ncc(NC3=N/C(=C\c4ccc5ncsc5c4)C(=O)N3)cn2)CC1', 'MET'),
  ('CS(=O)(=O)NC12CC3CC(CC(NC4=N/C(=C\c5ccc6ncsc6c5)C(=O)N4)(C3)C1)C2', 'MET'),
  ('O=C1NC(NC2CCCCC2)=N/C1=C\c1ccc2c(c1)CCO2', 'NOT MET'),
  ('O=C1NC(Nc2cccc(C(F)(F)F)c2)=N/C1=C\c1ccc2ncsc2c1', 'NOT MET'),
  ('COC[C@@H](NC1=N/C(=C\c2ccc3ncsc3c2)C(=O)N1)c1ccccc1', 'NOT MET'),
  ('CN1CCC(NC2=N/C(=C\c3ccc4ncsc4c3)C(=O)N2)CC1', 'NOT MET'),
  ('C[C@@H](NC1=N/C(=C\c2ccc3ncsc3c2)C(=O)N1)C1CCCCC1', 'NOT MET'),
  ('O=C1NC(NC23CC4CC(CC(C4)C2)C3)=N/C1=C\c1ccc2c(c1)CCO2', 'NOT MET'),
  ('CO[C@H]1CC[C@H](NC2=N/C(=C\c3ccc4ncsc4c3)C(=O)N2)CC1', 'NOT MET'),
  ('COC(=O)[C@@H](CC(C)C)NC1=N/C(=C\c2ccc3ncsc3c2)C(=O)N1', 'NOT MET'),
  ('Cn1ncc2cccc(NC3=N/C(=C\c4ccc5ncsc5c4)C(=O)N3)c21', 'NOT MET'),
  ('O=C1NC(NC[C@@H](O)c2ccccc2)=N/C1=C\c1ccc2ncsc2c1', 'MET'),
  ('Cc1ccc(CNC2=N/C(=C\c3ccc4ncsc4c3)C(=O)N2)c(C)c1', 'NOT MET'),
  ('Cc1ccc(CNC2=N/C(=C\c3ccc4ncsc4c3)C(=O)N2)o1', 'NOT MET'),
  ('CC1(C)C2CCC1(C)[C@H](NC1=N/C(=C\c3ccc4ncsc4c3)C(=O)N1)C2 (stereo partly specified)', 'MET'),
  ('O=C1NC(NC[C@H](O)c2ccccc2)=N/C1=C\c1ccc2ncsc2c1', 'NOT MET'),
  ('COC[C@H](NC1=N/C(=C\c2ccc3ncsc3c2)C(=O)N1)c1ccccc1', 'MET'),
  ('O=C1NC(NC2CCCCOC2)=N/C1=C\c1ccc2ncsc2c1 (racemic)', 'MET'),
  ('CC(C)C[C@H](COC1CC1)NC1=N/C(=C\c2ccc3ncsc3c2)C(=O)N1', 'NOT MET');
